- System: HCT-116
- Protocol Details: cells
- Format: cell-based
- Applied Conditions: Homo sapiens; HCT-116 expressing GFP, 24 h, mean ± SD; read-out: IC50 (cell viability)
pIC50: −log10 of the molar value. *1 amine or outer side, *2 acyl side, *3 side chain or, on linkers, in order; H or OH if unused. Where a SMILES comes first, the peptide text is derived from it. Bridges are numbered along the chain shown (N, C = ends). [ ]: non-standard residue; d: D form. The star is where a group is joined. Orn(4R-OH,5R-OCH2CH2NMe3+) = C[N+](C)(C)CCO[C@@H](N[*:3])[C@H](O)C[C@H](N[*:1])C(=O)[*:2]; pTerphenylCO(4''-OnC5H11) = CCCCCOc1ccc(-c2ccc(-c3ccc(C(=O)*)cc3)cc2)cc1; Orn(4R-OH,5R-OH) = O=C([C@H](C[C@@H](O)[C@@H](O)N[*:3])N[*:1])[*:2]; hTyr(3S-OH,4S-OH) = N[C@H](C(=O)O)[C@H](O)[C@@H](O)c1ccc(O)cc1; Pro(3S-OH,4S-Me) = C[C@H]1CN[C@H](C(=O)O)[C@H]1O; hTyr(3R-OH) = N[C@H](C(=O)O)[C@H](O)Cc1ccc(O)cc1; Hyp = O=C(O)[C@@H]1C[C@@H](O)CN1
pIC50 reference
Experimental Readout: pIC50

INSERT INTO measurements (molecule, experimental_result) VALUES
  ('CCCCCOc1ccc(-c2ccc(-c3ccc(C(=O)N[C@H]4C[C@@H](O)[C@@H](OCC[N+](C)(C)C)NC(=O)[C@@H]5[C@@H](O)[C@@H](C)CN5C(=O)[C@H]([C@@H](C)O)NC(=O)[C@H]([C@H](O)[C@@H](O)c5ccc(O)cc5)NC(=O)[C@@H]5C[C@@H](O)CN5C(=O)[C@H]([C@@H](C)O)NC4=O)cc3)cc2)cc1 [RZF, rezafungin] ({pTerphenylCO(4''''-OnC5H11)}-[Orn(4R-OH,5R-OCH2CH2NMe3+)]T[Hyp][hTyr(3S-OH,4S-OH)]T[Pro(3S-OH,4S-Me)]; lactam 1-C)', '< 4.40'),
  ('CCCCCOc1ccc(-c2ccc(-c3ccc(C(=O)N[C@H]4C[C@@H](O)[C@@H](OCC[N+](C)(C)C)NC(=O)[C@@H]5[C@@H](O)[C@@H](C)CN5C(=O)[C@H]([C@@H](C)O)NC(=O)[C@H]([C@H](O)Cc5ccc(O)cc5)NC(=O)[C@@H]5C[C@@H](O)CN5C(=O)[C@H]([C@@H](C)O)NC4=O)cc3)cc2)cc1 [Compound 2, dehydroxy-RZF] ({pTerphenylCO(4''''-OnC5H11)}-[Orn(4R-OH,5R-OCH2CH2NMe3+)]T[Hyp][hTyr(3R-OH)]T[Pro(3S-OH,4S-Me)]; lactam 1-C)', 4.47),
  ('CCCCCOc1ccc(-c2ccc(-c3ccc(C(=O)N[C@H]4C[C@@H](O)[C@@H](O)NC(=O)[C@@H]5[C@@H](O)[C@@H](C)CN5C(=O)[C@H]([C@@H](C)O)NC(=O)[C@H]([C@H](O)Cc5ccc(O)cc5)NC(=O)[C@@H]5C[C@@H](O)CN5C(=O)[C@H]([C@@H](C)O)NC4=O)cc3)cc2)cc1 [Compound 1, dehydroxy-ANF] ({pTerphenylCO(4''''-OnC5H11)}-[Orn(4R-OH,5R-OH)]T[Hyp][hTyr(3R-OH)]T[Pro(3S-OH,4S-Me)]; lactam 1-C)', '< 4.40'),
  ('CCCCCOc1ccc(-c2ccc(-c3ccc(C(=O)N[C@H]4C[C@@H](O)[C@@H](O)NC(=O)[C@@H]5[C@@H](O)[C@@H](C)CN5C(=O)[C@H]([C@@H](C)O)NC(=O)[C@H]([C@H](O)[C@@H](O)c5ccc(O)cc5)NC(=O)[C@@H]5C[C@@H](O)CN5C(=O)[C@H]([C@@H](C)O)NC4=O)cc3)cc2)cc1 [ANF, anidulafungin] ({pTerphenylCO(4''''-OnC5H11)}-[Orn(4R-OH,5R-OH)]T[Hyp][hTyr(3S-OH,4S-OH)]T[Pro(3S-OH,4S-Me)]; lactam 1-C)', '< 4.40');
